# TEST_DETAILS: Selectivity index, ratio of MCC for African green monkey Vero E6 cells to IC50 for HSV-1 L2/Rp-ACV/2 infected in African green monkey Vero E6 cells
# Parameters: species or system Vero C1008
VALUE_TYPE: Selectivity Index
Please reply with the number alone, leaving off any unit.

SMILES_STRUCTURE | READOUT_VALUE
Nc1nc2c(ncn2COCCO)c(=O)[nH]1 | 16

Would you kindly look at the next entry?
For O.O.O.O.O.O.O=C([O-])P(=O)([O-])[O-].[Na+].[Na+].[Na+] , what is its reported Selectivity Index?
16

====

# System: Human alphaherpesvirus 1
# TEST_DETAILS: Antiviral activity against acyclovir and foscarnet-resistant HSV-1 L2 infected in African green monkey Vero E6 cells assessed as reduction in virus-induced cytopathic effect
# Assay type: functional
# STATED_CONDITIONS: Human alphaherpesvirus 1, L2, Vero C1008
VALUE_TYPE: pIC50
Scale for pIC50: -log10 of concentration given in mol/L; no unit attached.

// worked examples, pIC50 included
SMILES_STRUCTURE | READOUT_VALUE
NC(=O)c1ncn([C@@H]2O[C@H](CO)[C@@H](O)[C@H]2O)n1 | 2.99
Nc1nc2cc(F)c(F)cc2n1[C@@H]1O[C@H](CO)[C@@H](O)[C@H]1O | 3.68
Nc1ccn(C[C@@H](CO)OCP(=O)(O)O)c(=O)n1.O.O | 5.15

For O.O.O.O.O.O.O=C([O-])P(=O)([O-])[O-].[Na+].[Na+].[Na+] , what is its reported pIC50?
3.38

====

Here, each record is paired with measured IC95 data.
# System: Human alphaherpesvirus 1
# TEST_DETAILS: Antiviral activity against acyclovir and cidofovir-resistant HSV-1 L2 infected in African green monkey Vero E6 cells assessed as reduction in virus-induced cytopathic effect
# Format: functional
# STATED_CONDITIONS: Human alphaherpesvirus 1, L2, Vero C1008

MOLECULE | READOUT_VALUE
Nc1nc2c(ncn2COCCO)c(=O)[nH]1 [ACYCLOVIR] | 139 µM
O.O.O.O.O.O.O=C([O-])P(=O)([O-])[O-].[Na+].[Na+].[Na+] | 208 µM
Nc1nc2cc(F)c(F)cc2n1[C@@H]1O[C@H](CO)[C@@H](O)[C@H]1O | 830 µM
Nc1ccn(C[C@@H](CO)OCP(=O)(O)O)c(=O)n1.O.O [CIDOFOVIR] | 895 µM

Would you kindly look at the next entry?
For NC(=O)c1ncn([C@@H]2O[C@H](CO)[C@@H](O)[C@H]2O)n1 [RIBAVIRIN] , what is its reported IC95?
> 4100 µM

====

# Test system: Human alphaherpesvirus 1
# TEST_DETAILS: Antiviral activity against acyclovir-resistant HSV-1 L2 infected in African green monkey Vero E6 cells assessed as reduction in virus-induced cytopathic effect
# Type: functional
# STATED_CONDITIONS: Human alphaherpesvirus 1, L2, Vero C1008
Here, each record is paired with measured IC95 data.
Please respond with the number in µM and leave the unit unwritten.

// worked examples, IC95 included
SMILES_STRUCTURE | UOM | READOUT_VALUE
Nc1ccn(C[C@@H](CO)OCP(=O)(O)O)c(=O)n1.O.O | µM | 55.9
O.O.O.O.O.O.O=C([O-])P(=O)([O-])[O-].[Na+].[Na+].[Na+] | µM | 208

For Nc1nc2cc(F)c(F)cc2n1[C@@H]1O[C@H](CO)[C@@H](O)[C@H]1O , what is its reported IC95?
830

# credit: ChEMBL document CHEMBL4017472
